What pKd was measured for each of the following?
Biological target: recombinant human PD-L1 (Homo sapiens, UniProt Q9NZQ7)
Assay: PD-L1 binding by microscale thermophoresis (MST)
Settings: affinity for PD-L1 measured by MST
One number for each entry, as −log10 of the molar value.

Study these solved cases before continuing.
| compound.smiles | value.kind | readout.number |
| --- | --- | --- |
| O=C1CC(c2ccc(Cl)cc2)=NN1c1ccc(Cl)cc1Cl | pKd | 8.15 |
| O=C1CC(C23CC4CC(CC(C4)C2)C3)=NN1c1ccccc1Cl | pKd | 7.92 |
| CC1=NN(c2ccc(Cl)cc2Cl)C(=O)C1 | pKd | 7.47 |

Next up:
(Q) Which pKd is listed for "CC1=NN(c2ccccn2)C(=O)C1" ?
(A) 7.11

====

Please go through the items and note down their pIC50.
Biological target: PD-L1/PD-1 interaction (Homo sapiens, UniProt Q9NZQ7)
Sequence (Q9NZQ7 19-290): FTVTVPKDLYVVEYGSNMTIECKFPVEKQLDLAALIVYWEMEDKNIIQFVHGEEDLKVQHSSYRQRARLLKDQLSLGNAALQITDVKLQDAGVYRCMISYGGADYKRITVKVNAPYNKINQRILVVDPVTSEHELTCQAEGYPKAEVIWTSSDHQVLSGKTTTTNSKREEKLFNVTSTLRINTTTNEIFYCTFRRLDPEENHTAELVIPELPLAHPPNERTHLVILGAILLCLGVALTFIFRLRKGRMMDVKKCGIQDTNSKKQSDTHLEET
Assay: Disruption of the PD-L1/PD-1 interaction in cells, FRET assay
Conditions: read-out: Bioactivity (IC50): capacity to disrupt the PD-L1/PD-1 interaction in cells
One number for each entry, as −log10 of the molar value.

Dear reader, for each entry below, please note its pIC50.
1. CC1=NN(c2ccc(Cl)cc2Cl)C(=O)C1
2. O=C1CC(c2ccc(Cl)cc2)=NN1c1ccc(Cl)cc1Cl

(A)
[7.64, 8.52]

Take each entry in turn and give its pIC50.
1. CC1=NN(c2ccccn2)C(=O)C1
2. O=C1CC(C23CC4CC(CC(C4)C2)C3)=NN1c1ccccc1Cl

(A)
1. 7.04
2. 7.64
